Test system: 284 cell lines
Test: cells
Conditions: Homo sapiens, CAMA-1, read-out: Cell Count IC50, CAMA-1; Breast
pIC50: −log10 of the molar value.
Recorded endpoint: pIC50

// query Name the recorded pIC50 of the item CNc1cc(C)nc(Nc2ccc(OC)c(OCCCN3CCCC3)c2)n1 [Compound 205] in your answer.
// result 5.00 to 6.00

###

System: 284 cell lines
Assay: cells
Settings: Homo sapiens, EFM-19, read-out: Cell Count IC50, EFM-19; Breast
Recorded endpoint: IC50

// query Name the recorded IC50 of the item CNc1cc(C)nc(Nc2ccc(OC)c(OCCCN3CCCC3)c2)n1 in your answer.
// result > 10 µM
